Consider the following compounds; for each one, report its m-LM [% at 60 min].
# Experiment Summary: In vitro microsomal stability study
# Type: in vitro ADME
# Condition Info: mouse liver microsomes, % remaining at 60 min
Numbers only, in %.

Record m-LM [% at 60 min] per entry; entries follow.
1. Cl.O=C(NCCCCc1ccccc1)n1c(=O)oc2cc(C3CCNCC3)ccc21 [22d]
2. CN1CCC(c2cc3oc(=O)n(C(=O)NCCCCc4ccccc4)c3cc2F)CC1 [22p]
3. CC(C)CNC(=O)n1c(=O)oc2cc(C3CCCN(C)C3)ccc21 (racemic) [compound 27]

Reply:
70
70
70

====

# Test System: AC (Homo sapiens)
# Sequence (Q13510 22-395): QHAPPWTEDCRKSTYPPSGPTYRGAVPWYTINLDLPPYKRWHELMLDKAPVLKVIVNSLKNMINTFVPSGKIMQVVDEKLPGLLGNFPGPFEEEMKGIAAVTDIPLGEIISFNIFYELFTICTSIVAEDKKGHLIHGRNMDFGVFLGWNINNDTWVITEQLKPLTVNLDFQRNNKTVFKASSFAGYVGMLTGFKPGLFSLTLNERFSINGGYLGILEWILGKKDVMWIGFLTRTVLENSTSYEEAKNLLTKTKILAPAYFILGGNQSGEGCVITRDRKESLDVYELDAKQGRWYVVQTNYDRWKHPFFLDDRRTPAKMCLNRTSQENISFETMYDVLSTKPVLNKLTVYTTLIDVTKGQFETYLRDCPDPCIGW
# Experiment Summary: Fluorogenic hAC assay on hAC-enriched lysate of HEK293 cells
# Format: biochemical
# Design: expressed in transfected cells
# Condition Info: supplementary csv; read-out: hAC, IC50
pIC50: −log10 of the molar value.
Label rule, in plain words: pIC50 of 6 and up is Y, under 6 is N.

Reference set (6 entries):
{"columns": ["Compound", "Answer Label"],
 "data": [
  ["CN1CCc2oc(=O)n(C(=O)NCCCCc3ccccc3)c2C1 [12c]", "Y"],
  ["CC(C)CNC(=O)n1c(=O)oc2cc(C3CCCN(C)C3)ccc21 (racemic)", "N"],
  ["O=C(NCCCCc1ccccc1)n1c2c(oc1=O)CCNC2 [12b]", "Y"],
  ["O=C(NCCCCc1ccccc1)n1c2c(oc1=O)CNCC2 [17b]", "Y"],
  ["O=C(NCCOCc1ccccc1)n1c(=O)oc2cc(-c3ccc(F)cc3)ccc21", "N"],
  ["CC(=O)N1CCc2oc(=O)n(C(=O)NCCCCc3ccccc3)c2C1 [12e]", "Y"]
]}

Ask: Does the reported pIC50 for `CCOCCNC(=O)n1c(=O)oc2cc(-c3ccc(F)cc3)ccc21` fall at or above the 6 mark?
Reply: N

Ask: Check if pIC50 >= 6 (inclusive). Item: `COCCCNC(=O)n1c(=O)oc2cc(-c3ccc(F)cc3)ccc21`
Reply: N

Ask: Could you please find out whether O=C(NCCCCc1ccccc1)n1c2c(oc1=O)CCN(Cc1ccccc1)C2 [12d] has pIC50 that meets 6 or exceeds it?
Reply: Y
